Tested on: EKVX NSCLC
ASSAY SUMMARY: NCI-60 one-dose screen, 48 h (100 = growth as untreated, 0 = no growth, -100 = all killed)
RUN CONDITIONS: 10 µM unless noted
About 83,000 compounds went through this panel and 20% of them were active in at least one assay; those are over-represented in the sample as a whole.
MEASURED QUANTITY: growth (%)
Answers are plain numbers, in %.

Before answering, review these 4 worked examples.
MOLECULE	MEASURED QUANTITY	OBSERVED VALUE
CC(c1ccccc1)N1C(=O)C(C2SC(=S)N(C(C)c3ccccc3)C2=O)SC1=S (stereo not given)	growth	94.4
O=C(O)c1cccc2c1C(=O)N(c1ccc3c(c1)Cc1ccccc1-3)C2=O	growth	111
CC(=O)OC[C@]12CC[C@@H](/C(C)=N/O)[C@@H]1[C@H]1CC[C@@H]3[C@@]4(C)CCCNC(C)(C)[C@@H]4CC[C@@]3(C)[C@]1(C)CC2	growth	84.6
O=C(NCN1C(=O)c2cccc3cccc(c23)C1=O)N1CCC(Cc2ccccc2)CC1	growth	93.4

Let us move to another entry and its growth.
The reported growth of the molecule Nc1c2c(nc3ccc(Cl)cc13)CC(c1ccc(O)cc1)CC2=O (stereo not given) was 29.8
